# SUBJECT OF TEST: UniProt P22199
# Sequence (P22199 whole entry): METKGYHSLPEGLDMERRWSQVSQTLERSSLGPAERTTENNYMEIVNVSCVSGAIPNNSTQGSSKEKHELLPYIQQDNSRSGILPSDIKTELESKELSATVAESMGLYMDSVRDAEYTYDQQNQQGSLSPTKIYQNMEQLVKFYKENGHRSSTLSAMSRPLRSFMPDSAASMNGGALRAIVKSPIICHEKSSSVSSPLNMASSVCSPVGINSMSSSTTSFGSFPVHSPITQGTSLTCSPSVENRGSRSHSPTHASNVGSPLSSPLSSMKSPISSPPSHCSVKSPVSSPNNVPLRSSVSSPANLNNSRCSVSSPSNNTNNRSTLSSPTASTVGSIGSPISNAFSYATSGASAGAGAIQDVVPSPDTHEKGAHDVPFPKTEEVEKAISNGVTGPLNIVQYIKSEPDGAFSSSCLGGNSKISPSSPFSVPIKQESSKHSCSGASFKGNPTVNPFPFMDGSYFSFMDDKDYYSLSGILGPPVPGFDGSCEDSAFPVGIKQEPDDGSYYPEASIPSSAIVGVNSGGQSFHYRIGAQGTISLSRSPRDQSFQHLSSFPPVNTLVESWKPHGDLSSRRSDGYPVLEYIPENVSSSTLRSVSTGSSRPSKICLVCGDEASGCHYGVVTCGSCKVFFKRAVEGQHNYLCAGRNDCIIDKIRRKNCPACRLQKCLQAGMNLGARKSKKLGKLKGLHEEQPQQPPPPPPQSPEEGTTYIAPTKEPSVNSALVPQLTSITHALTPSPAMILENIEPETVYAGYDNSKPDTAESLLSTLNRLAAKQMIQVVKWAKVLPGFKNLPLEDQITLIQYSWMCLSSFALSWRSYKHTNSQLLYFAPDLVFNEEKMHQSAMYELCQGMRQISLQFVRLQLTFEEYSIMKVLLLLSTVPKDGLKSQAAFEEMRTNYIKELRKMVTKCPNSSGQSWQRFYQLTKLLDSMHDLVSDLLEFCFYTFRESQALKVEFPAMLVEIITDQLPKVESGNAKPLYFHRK
Reported IC50 is given for each of the following compounds.

>  <COMPOUND>
C[C@]12Cc3cnn(-c4ccc(F)cc4)c3C=C1CCC[C@@H]2[C@@H](O)c1ccccc1

>  <IC50>
> 5 µM

$$$$
>  <COMPOUND>
C[C@]12Cc3cnn(-c4ccc(F)cc4)c3C=C1CCC[C@@H]2[C@@H](O)c1ccc(F)cc1 [BMCL173354 benzo[f]indazole, 6]

>  <IC50>
> 5 µM

$$$$

# input for lookup
Prompt: // lookup IC50 for C[C@]12Cc3cnn(-c4ccc(F)cc4)c3C=C1CCC[C@@H]2[C@H](O)c1ccc(F)cc1 [BMCL173354 benzo[f]indazole, 7]
Completion: > 5 µM
